Provenance of the data: patent US8110703B2

Give measured G0-G1 (%) for each item. Keep answers brief.
# Test system: HepG2 cells
# experimental.protocol: Cell cycle and apoptosis by flow cytometry, HepG2
# Assay type: cell-based
# condition.description: HepG2, flow cytometry
Just the number please, in %, no unit attached.

*Q* Request - read-out G0-G1 (%) | tested on HepG2 cells | molecule `CC1=C(/C=C/C(C)=C/C=C/C(C)=C/C(=O)Nc2cccc(OC(F)(F)F)c2)C(C)(C)CCC1`
*A* 57.5

*Q* Request - read-out G0-G1 (%) | tested on HepG2 cells | molecule `CC1=C(/C=C/C(C)=C/C=C/C(C)=C/C(=O)Nc2ccc(C(F)(F)F)cc2)C(C)(C)CCC1`
*A* 56.3

*Q* Request - read-out G0-G1 (%) | tested on HepG2 cells | molecule `CC1=C(/C=C/C(C)=C/C=C/C(C)=C/C(=O)Nc2cccc(C(F)(F)F)c2)C(C)(C)CCC1`
*A* 40.3

*Q* Request - read-out G0-G1 (%) | tested on HepG2 cells | molecule `CC1=C(/C=C/C(C)=C/C=C/C(C)=C/C(=O)Oc2ccc(N)cc2C(F)(F)F)C(C)(C)CCC1`
*A* 30.9

*Q* Request - read-out G0-G1 (%) | tested on HepG2 cells | molecule `CC1=C(/C=C/C(C)=C/C=C/C(C)=C/C(=O)Oc2ccccc2C(F)(F)F)C(C)(C)CCC1`
*A* 57.3

*Q* Request - read-out G0-G1 (%) | tested on HepG2 cells | molecule `CC1=C(/C=C/C(C)=C/C=C/C(C)=C/C(=O)Nc2ccc(OC(F)(F)F)cc2)C(C)(C)CCC1`
*A* 57.4

---

# System: A549 cells
# experimental.protocol: Differentiation index: CEA secretory volume of A549 cells
# Type: cell-based
# condition.description: A549 culture supernatant, 10 ug/ml, 3 d, DMSO
Threshold check on CEA: strictly below 3 µg/L is condition met; on or above 3 µg/L is condition not met.

*Q* Hello, I'm reviewing records and need to know if CEA of `CC1=C(/C=C/C(C)=C/C=C/C(C)=C/C(=O)Oc2ccc(N)cc2C(F)(F)F)C(C)(C)CCC1` is below 3 µg/L. Could you check?
*A* condition not met

*Q* Hello, I'm reviewing records and need to know if CEA of `CC1=C(/C=C/C(C)=C/C=C/C(C)=C/C(=O)Nc2ccc(OC(F)(F)F)cc2)C(C)(C)CCC1` is below 3 µg/L. Could you check?
*A* condition met

*Q* Hello, I'm reviewing records and need to know if CEA of `CC1=C(/C=C/C(C)=C/C=C/C(C)=C/C(=O)Nc2cccc(C(F)(F)F)c2)C(C)(C)CCC1` is below 3 µg/L. Could you check?
*A* condition met

*Q* Hello, I'm reviewing records and need to know if CEA of `CC1=C(/C=C/C(C)=C/C=C/C(C)=C/C(=O)Nc2cccc(OC(F)(F)F)c2)C(C)(C)CCC1` is below 3 µg/L. Could you check?
*A* condition not met

*Q* Hello, I'm reviewing records and need to know if CEA of `CC1=C(/C=C/C(C)=C/C=C/C(C)=C/C(=O)Nc2ccc(C(F)(F)F)cc2)C(C)(C)CCC1` is below 3 µg/L. Could you check?
*A* condition met

*Q* Hello, I'm reviewing records and need to know if CEA of CC1=C(/C=C/C(C)=C/C=C/C(C)=C/C(=O)Nc2ccc(O)cc2)C(C)(C)CCC1 [Fenretinide, reference compound] is below 3 µg/L. Could you check?
*A* condition not met
